Source: patent US20200157212A1

- Measured on: T1, Human ROBO1 RSK mutant overexpressed on HEK293 cells (human, UniProt Q9Y6N7 26-1651)
- T1 construct: K137R and R139K already in the entry; also called ROBO1-RSK cells
- Assay text: flow cytometry, Geo MFI ROBO1-RSK/ROBO2-KSR HEK293 cells, 2.5 µg/ml
Some binders, each annotated with its measured Fold Selectivity for RSK/KSR.
Please reply with the bare figure in fold and do not write the unit itself.

Abcs20 (antibody, human IgG1, kappa, V domains shown, chain-shuffled IgG) VH: EVQLVQSGAEVKKPGASVKVSCKASGYTFTGYYMHWVRQAPGQGLEWMGWINPKNGDTEFPQKFQGRVTMTRDTSITTAYMDLSRLRSDDTAVYYCARESGDDAFDIWGQGTMVTVSS VL: DIVMTQSPSSLSASVGDRVTITCRASQSISSYLNWYQQKPGKAPKLLIYAASSLQSGVPSRFSGSGSGTDFTLTISSLQPEDFATYYCQQSVGLSFGGGTKVEIKR; 7

Let's switch to this binder now.
Query: May I ask what Fold Selectivity for RSK/KSR has been recorded for Abcs25 (antibody, human IgG1, kappa, V domains shown, chain-shuffled IgG) VH: EVQLVQSGAEVKKPGASVKVSCKASGYTFTGYYMHWVRQAPGQGLEWMGWINPKDGDTEFPQKFQGRVTMTRDTSITTAYMDLSRLRSDDTAVYYCARESGDDAFDIWGQGTMVTVSS VL: DIVMTQSPSSLSASVGDRVTITCRASQSISSYLNWYQQKPGKAPKLLIYAASSLQSGVPSRFSGSGSGTDFTLTISSLQPEDFATYYCQQSVGLSFGGGTKVEIKR ?
Response: 8.1
